measurement.target: PEG-3 (UniProt Q6IN02)
Sequence (Q6IN02 whole entry, looked up): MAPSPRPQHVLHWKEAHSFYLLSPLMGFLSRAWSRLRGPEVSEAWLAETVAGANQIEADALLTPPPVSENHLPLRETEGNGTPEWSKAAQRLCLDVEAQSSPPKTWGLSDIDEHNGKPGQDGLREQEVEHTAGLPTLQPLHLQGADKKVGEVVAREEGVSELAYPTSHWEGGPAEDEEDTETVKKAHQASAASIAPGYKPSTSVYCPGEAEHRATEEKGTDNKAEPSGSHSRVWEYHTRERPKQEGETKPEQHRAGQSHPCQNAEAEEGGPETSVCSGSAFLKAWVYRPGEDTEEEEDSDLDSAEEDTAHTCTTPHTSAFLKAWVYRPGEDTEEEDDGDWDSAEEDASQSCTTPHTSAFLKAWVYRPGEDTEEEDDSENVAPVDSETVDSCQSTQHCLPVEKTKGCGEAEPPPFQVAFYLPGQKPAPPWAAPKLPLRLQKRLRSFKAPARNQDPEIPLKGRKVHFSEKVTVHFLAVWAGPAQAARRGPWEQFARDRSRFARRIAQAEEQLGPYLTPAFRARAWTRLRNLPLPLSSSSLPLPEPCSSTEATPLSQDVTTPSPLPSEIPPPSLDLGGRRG
method.notes: Peg3 promoter luciferase inhibitors, potency, dose response, cell-based, HeLa, CREF/GAPDH counter-screen panel (AID 624167)
study.conditions: CREF/GAPDH counter-screens; HeLa PEG-Prom luciferase reporter, overnight, run 2, dose range 1, at 100 µM (top of the series) unless noted
assay.readout: inhibition (%)

Cc1ccc(NC(=S)NC(=O)c2ccc(F)cc2)cc1S(=O)(=O)Nc1ccccc1Cl    36.1
Cc1ccccc1NC(=O)C(=Cc1ccc(C(=O)O)cc1)C(=O)Nc1ccccc1C    101
COc1ccc(C)cc1Nc1n[n+](-c2ccccc2)c(-c2ccc(N(C)C)cc2)s1    100
Cc1ccc2nc(N(CCCN(C)C)C(=O)c3ccc4c(c3)CCCC4)sc2c1    101
Cc1cc(C(=O)COC(=O)c2ccccc2Br)c(C)n1CC1CCCO1 (stereo not given)    85.4
O=C(Nc1ccc([N+](=O)[O-])cc1)C(=O)Nc1cccc(C(=O)O)c1    95
CC(=O)NC(c1ccc(C)cc1)c1cc(Cl)c2cccnc2c1O (stereo not given)    89.7
Cc1cc(C)c(CN2CCN(CCCn3cnc(C(=O)Nc4ccc(C)c(C)c4)n3)CC2)c(C)c1    101
C(=NN1CCCCCC1)c1ccc2ccccc2n1    101
O=C(Nc1cccc(S(=O)(=O)N2CCOCC2)c1)c1ccc2c(=O)n3c(nc2c1)CCCCC3    98

###

measurement.target: Tumor necrosis factor receptor superfamily member 10B (Homo sapiens)
method.notes: caspase-8 TRAIL sensitization, hit retest, confirmation, cell-based, NB7+caspase-8, with/without TRAIL, luminescence panel (AID 651596)
study.conditions: NB7 neuroblastoma + caspase-8, TRAIL sensitization, luminescence viability, with TRAIL, mean of runs, at 10 µM, stronger effect = higher value
Values of activity strictly less than 60% map to Satisfied, and values of at least 60% map to Not satisfied.

O=C(/C=C/c1cccc(F)c1)N1CCc2ccccc21    Satisfied
COc1cccc(Nc2nc(N)nc(CCl)n2)c1    Not satisfied
CC(=O)c1ccc(N2CCN(c3ccc4cc(S(=O)(=O)N5CCC(C)CC5)ccc4n3)CC2)cc1    Satisfied
CCCc1ccc(-c2cc(C(=O)Nc3ccc([N+](=O)[O-])cn3)c3ccccc3n2)cc1    Satisfied
O=C(CCl)N(c1ccccc1)C1CCCCC1    Not satisfied
O=C1C(=C2CCc3ccccc32)Cc2ccccc21    Satisfied

###

measurement.target: Caspase-3 (Homo sapiens) (UniProt P42574)
method.notes: caspase-3 protease inhibitors, confirmation, selectivity assay for SENP inhibitor project, biochemical, single concentration (AID 488918);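 note: plate controls were enzyme with DMSO for no effect and wells without caspase-3 for full effect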
study.conditions: purified caspase-3, Z-DEVD-aminoluciferin luminescence, 60 min; at 12.5 µM; stronger effect = higher value
The list shows a part of the results.
Each entry gets Not fulfilled if its inhibition stays under 80%, and Fulfilled if its inhibition is 80% or above.

Cc1nonc1C(=O)N/N=C/c1ccc(O)cc1    Fulfilled
Nc1[nH][nH]c(=O)c1N=Nc1ccc2c(c1)OCO2    Not fulfilled
CCC(=O)NC(Nc1cc(C)ccn1)(C(F)(F)F)C(F)(F)F    Not fulfilled
COCCn1nnnc1C(c1cc2ccc(OC)cc2[nH]c1=O)N1CCc2ccccc2C1 (configuration not stated)    Not fulfilled
Fc1ccc(COc2ccc(-c3nnco3)cc2)cc1    Not fulfilled
O=C(Nc1nc2ccccc2s1)c1ccc2c(c1)OCO2    Fulfilled
CCOC(=O)/C(C#N)=C/c1ccc(N2CCCCC2)cc1    Not fulfilled
COc1ccc(Cc2nnc(SCC(=O)c3cccc([N+](=O)[O-])c3)n2C)cc1    Not fulfilled
CSC1=N/C(=C\C=C\c2cccs2)C(=O)S1    Not fulfilled
Cc1ccc(F)c(NC(=O)CCc2ccccc2)c1    Not fulfilled
Cc1nc(NC(=O)c2ccc3c(c2)OCCO3)ccc1Br    Not fulfilled
COc1cc(SC)ccc1C(=O)Nc1cc(C)ccn1    Not fulfilled
COc1ccc(C(=O)Nc2ccc3c(c2)OCO3)cc1OC    Fulfilled
COC(=O)c1ccc(NCC(=O)c2ccccc2)cc1    Fulfilled
Cc1oc2c(c1C(=O)N1CCOCC1)C(=O)c1ccccc1C2=O    Fulfilled
O=C(Nc1ccccc1)c1ccc(NC(=O)c2cccs2)cc1    Not fulfilled
COc1ccccc1-c1nnc(-c2ccc(F)cc2)o1    Not fulfilled
Cc1[nH]n(C(N)=S)c(=O)c1N=Nc1ccc(Cl)cc1Cl    Fulfilled
O=C(O)c1ccc2c3c(cccc13)C(=O)N(OS(=O)(=O)c1ccccc1)C2=O    Not fulfilled
Cc1[nH]n(-c2ccc([N+](=O)[O-])cc2)c(=O)c1C=NCCN1CCN(C(=O)c2ccccc2F)CC1    Not fulfilled
Cn1c(NC(=O)c2ccccc2)nc2ccccc21    Fulfilled
O=C(Nc1ccc(NC(=O)c2ccco2)c(Cl)c1)c1cccc([N+](=O)[O-])c1    Not fulfilled
CCN1C(=O)c2cccc3c(N)ccc1c23    Not fulfilled
CCc1ccc2oc(-c3ccc(N)cc3)nc2c1    Fulfilled
COc1ccc(-c2cc3ccc(OCc4nn[nH]n4)cc3oc2=O)cc1    Not fulfilled
Clc1ccc(C2=CSC3=Nc4cccc5cccc(c45)N23)cc1    Not fulfilled
O=C(Nc1ccccc1)c1ccc2c(c1)OCCCO2    Fulfilled

###

method.notes: caspase-8 TRAIL sensitization, hit retest, confirmation, cell-based, NB7+caspase-8, with/without TRAIL, luminescence panel (AID 651596)
study.conditions: NB7 neuroblastoma + caspase-8, without TRAIL, luminescence viability, without TRAIL, mean of runs, at 10 µM
For each record, check the reported activity: if it is below 70% write Met, else write Not met.

O=C(Nc1ccc2c(c1)CCC2)c1ccccc1F    Met
O=C(/C=C/Nc1ccc(F)cc1)c1cccs1    Met
CN1CC(=O)N2C(c3ccc(Cl)cc3)c3[nH]c4ccccc4c3C[C@H]2C1=O (stereo partly specified)    Not met
COc1ccccc1-c1cc2nc(-c3ccccc3)cc(N3CCN(C(=O)c4ccoc4)CC3)n2n1    Met
COC(=O)c1ccc(-c2nc3ccccc3[nH]2)cc1    Not met
COc1ccc(S(=O)(=O)N2CCC(C(=O)NCCC3=CCCCC3)CC2)cc1C    Met
C/C(=N\NC(=O)c1csc(C)c1C)c1ccco1    Met
CCOc1cccc2cc(-c3nnc(NCc4ccco4)s3)c(=O)oc12    Met
C=CCn1c2ccccc2c(=O)c2cc(C#CC3(O)CCCCC3)ccc21    Not met

###

measurement.target: Sentrin-specific protease 8 (Homo sapiens) (UniProt Q96LD8)
Sequence (Q96LD8 whole entry, looked up): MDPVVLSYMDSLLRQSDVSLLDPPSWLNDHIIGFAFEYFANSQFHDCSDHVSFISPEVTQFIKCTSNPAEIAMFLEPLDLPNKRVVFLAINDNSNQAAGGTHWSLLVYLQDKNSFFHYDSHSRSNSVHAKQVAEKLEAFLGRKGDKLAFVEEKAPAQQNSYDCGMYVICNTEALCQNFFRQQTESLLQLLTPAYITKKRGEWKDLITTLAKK
method.notes: SENP8 protease inhibitors, retest, confirmation, biochemical, luminescence, single concentration (AID 488912)
study.conditions: Recombinant SENP8, Z-RLRGG-aminoluciferin luminescence, 60 min; at 12.5 µM; stronger effect = higher value
The list shows a part of the results. The source made the active and inactive calls.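 How the source made its calls: active means mean inhibition across replicates above about 50% (limit read from the data); inactive means the rest.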
assay.readout: inhibition

Oc1ccc(N=Cc2sc3ccccc3c2Cl)cc1    -10.7% (inactive)
O=c1[nH]c(/C=C/c2cccc(Br)c2)nc2ccccc12    2.7% (inactive)
Fc1ccc(COc2ccc(-c3nnco3)cc2)cc1    29% (inactive)
CCN1C(=O)c2cccc3c(N)ccc1c23    22% (inactive)
CSc1ccc(/C=N/NC(=O)c2cccc(Cl)c2)cc1    36.6% (inactive)
Nc1ncc(-c2cc3ccccc3oc2=O)s1    92.7% (active)
Cc1nn2cc(-c3ccc(Cl)cc3)cnc2c1Br    17.8% (inactive)
Cc1cccc(NC(=O)COc2ccc(Br)cc2C)n1    1% (inactive)
FC(F)(F)c1ccnc(Oc2ccc(C3=NCCS3)cc2)c1    36.3% (inactive)

###

method.notes: Rh110 fluorescence interference by putative Apaf-1 inhibitors, confirmation, artefact control for Apaf-1 inhibitor project, biochemical, 20 µM (AID 504615)
study.conditions: quenched caspase reaction, at 20 µM, stronger effect = higher value
Some of the results follow.
assay.readout: activation (fluorescence interference) (%)

C[C@@H](CN1CCC[C@H]1CN1C(N)=NC[C@@H]1Cc1ccccc1)N1C[C@@H](Cc2ccccc2)N(CCCC2CCCC2)C1=N    7.13
O=[N+]([O-])c1c(NCCO)cc(Sc2nc3ccccc3s2)c2nonc12    4.65
Cc1ccsc1/C=N/NC(=O)Cc1cc(=O)[nH][nH]1    8.37

###

method.notes: inhibitors of PAF-induced NFkB signaling in CF airway cells, dose response, cell-based, uHTS hits, panel, cytotoxicity readout (AID 624344)
study.conditions: CF bronchial epithelial cells, PAF-induced NFkB reporter inhibition, with PAF, run 2; at 79 µM (top of the series) unless noted
The entries below come with measured inhibition values attached.
assay.readout: inhibition

O=C1C=C(NC2=CC3OC(c4ccccc4)OCC3OC2=O)CCC1 (stereo not drawn)    111%
COc1ccc(Nc2nccc(-c3cccc(N)c3)n2)cc1    117%
COc1cc(CCc2ccccc2)c(C(=O)O)c(O)c1C/C=C(/C)CCC=C(C)C    114%
Clc1cncc(Cl)c1N/N=C/c1ccncc1    118%
FC(F)Sc1ccc(NC(=S)NC(c2ccccc2)c2ccccc2)cc1    103%
O=C(NCCc1ccc(F)cc1)c1coc(=O)c(Br)c1    83.4%
O=[N+]([O-])c1ccc(NC(=S)NCCc2ccc(F)cc2)cc1    105%
Nc1nc(N)nc(-c2ccc(Cl)c(Cl)c2)n1    101%
Fc1ccc(Nc2ccnc(Nc3ccc(F)cc3)n2)cc1    101%
COc1ccc(CNc2nn3c(-c4cccc(C(=O)N(C)C)c4)cnc3s2)cc1    104%
COc1ccc(C2=Nn3c(nnc3-c3ccccc3OC)SC2)cc1OC1CCCC1    118% [at 39.5 µM]
O=Nc1c(O)n(Cc2c(Cl)cccc2Cl)c2ccccc12    115%
Cc1ccc(Sc2c(C=O)c3ccccc3n2C)cc1    104%
CC(=O)c1c(O)cc(O)c(C(C)=O)c1O    101%
Cc1ccc(Cl)cc1-c1cc(C(=O)NCc2cc(C(F)(F)F)cc(C(F)(F)F)c2)[nH]n1    96.5%
CCOC(=O)C1=C(CC)Nc2ccccc2N=C1NC(=O)Nc1ccc(Cl)c(Cl)c1    103%
COc1ccc(CN(C)C(=O)c2cc(-c3ccc(C)cc3C)nc3ccccc23)c(OC)c1OC    111%
CCOC(=O)/C=c1/s/c(=C\c2c(OC)ccc3ccccc23)c(=O)n1CC(=O)NCC1CCCO1 (stereo not drawn)    46.6% [at 39.5 µM]
CNC(=O)c1ccc(NC(=O)C2CCN(c3ncnc4sc(C)c(C)c34)CC2)cc1    72%
C=C1C(=O)[C@]23C[C@H]1CC[C@H]2[C@]1(C)[C@@H](O)CC[C@@](C)(C(=O)O)[C@H]1C[C@@H]3O    103%
COc1ccc(COC(=O)C2=C(C)NC(=O)NC2c2ccc(F)cc2)cc1 (stereo not drawn)    105%
Cc1cccc(N2CCN(C(=O)CCn3c(=S)[nH]c4cc5c(cc4c3=O)OCO5)CC2C)c1 (stereo not drawn)    93.9%
CC(C)(C)c1nc(NC(=O)Nc2ccccc2)sc1Br    103%
Cc1cc(N2CCOCC2)c2c(N)c(Br)cc(C)c2n1    97.8%
COc1ccc(NC(=O)Cn2ncn3nc(-c4ccc(OC)cc4)cc3c2=O)cc1    107%
Cc1cccc(N=c2oc3cc(O)ccc3cc2C(N)=O)c1    80%
CN(C)c1ccc(C(C(=O)NCc2ccccc2)N(Cc2ccco2)C(=O)c2snc(C(N)=O)c2N)cc1 (stereo not drawn)    104%
COc1cc(C2c3cc4c(cc3C3OC(=O)C2C3CO)OCO4)cc(OC)c1OC (stereo not drawn)    94.7%
